Field: RP-LC retention time. Provide a value for each of the compounds that follow.
- Assay: gradient 5% acetonitrile 3 min, to 50% in 2 min, to 85% in 15 min, held 3 min, 100 µL/min
- Test context: column: Zorbax Extend-C18 2.1 x 50 mm; eluents: water / acetonitrile, 0.1% formic acid

Q. For the compound shown here, `O=C(Nc1ccc(F)cc1F)N1CCc2nc(-c3ccccc3)ncc2C1` , give the reported RP-LC retention time.
A. 881 s

Q. For the compound shown here, CCc1nc2cc(-c3noc(C(C)NC(=O)c4ccccc4)n3)ccc2o1 (stereo not given) , give the reported RP-LC retention time.
A. 916 s

Q. For the compound shown here, `CC(=O)c1ccc(NC(=O)Cn2cccc2-c2nc(-c3ccc4c(c3)OCO4)no2)cc1` , give the reported RP-LC retention time.
A. 923 s

Q. For the compound shown here, `O=C(NN1CCCCC1)NN1CCCCC1` , give the reported RP-LC retention time.
A. 626 s

Q. For the compound shown here, `CCCn1cc(S(=O)(=O)Nc2ccc(Cl)cc2)c2cccnc21` , give the reported RP-LC retention time.
A. 942 s

Q. For the compound shown here, `COc1cccc(-n2ccn3cc(-c4ccc5c(c4)OCO5)nc3c2=O)c1` , give the reported RP-LC retention time.
A. 775 s

Q. For the compound shown here, `CN1CCN(S(=O)(=O)c2ccc(Cl)c(-c3nnc(-c4ccccc4)o3)c2)CC1` , give the reported RP-LC retention time.
A. 681 s

Q. For the compound shown here, `CCc1ccccc1NC(=O)N1CCC(n2cnc3ccc(C)cc3c2=O)CC1` , give the reported RP-LC retention time.
A. 799 s

Q. For the compound shown here, `Cc1nnc2sc(SCC(=O)Nc3cccc(C(F)(F)F)c3)nn2c1=O` , give the reported RP-LC retention time.
A. 759 s

Q. For the compound shown here, `Cc1nc2cc(N3CCC(C(=O)NCCC4=CCCCC4)CC3)cnc2nc1C` , give the reported RP-LC retention time.
A. 767 s

Q. For the compound shown here, O=C(NCC1CCCO1)C1CCN(c2nccnc2Sc2ccccc2)CC1 (stereo not given) , give the reported RP-LC retention time.
A. 796 s

Q. For the compound shown here, `COc1ccc(OCc2nc(-c3ccc(N4CCCCC4)nc3)no2)cc1` , give the reported RP-LC retention time.
A. 1010 s

Q. For the compound shown here, O=C(NCc1cccs1)NCC1CC(=O)N(Cc2ccc(F)cc2)C1 (stereo not given) , give the reported RP-LC retention time.
A. 656 s

Q. For the compound shown here, `Cc1sc(C)c(S(=O)(=O)NC2CC2)c1-c1cc(C(F)(F)F)on1` , give the reported RP-LC retention time.
A. 1070 s

Q. For the compound shown here, `COc1ccc(CN2C=C(C(=O)OCc3nc(-c4cccc(OC)c4)no3)C(C)=NS2(=O)=O)cc1` , give the reported RP-LC retention time.
A. 1130 s

Q. For the compound shown here, COCCN1C(=O)c2ccccc2C(C(=O)NCCCc2ccccc2)C12CCCC2 (stereo not given) , give the reported RP-LC retention time.
A. 944 s

Q. For the compound shown here, CC(C)N1C(=O)C(C)N(C(=O)NC2CCCC2)c2cccnc21 (stereo not given) , give the reported RP-LC retention time.
A. 924 s

Q. For the compound shown here, COc1ccc(-c2noc(C3CCCN3C(=O)c3cc(F)ccc3F)n2)cc1 (stereo not given) , give the reported RP-LC retention time.
A. 968 s

Q. For the compound shown here, Cc1cc(N2CCC(NC(=O)NCc3cccc(F)c3)C2=O)ccc1F (stereo not given) , give the reported RP-LC retention time.
A. 903 s

Q. For the compound shown here, COc1ccccc1CCC(=O)NC(C)C(=O)Nc1nc2ccccc2[nH]1 (stereo not given) , give the reported RP-LC retention time.
A. 658 s

Q. For the compound shown here, `Cc1c(F)cccc1NC(=O)N(C)CC1CCOCC1` , give the reported RP-LC retention time.
A. 742 s

Q. For the compound shown here, `O=C(Cn1cnc2ccccc2c1=O)N1CCCC1` , give the reported RP-LC retention time.
A. 612 s

Q. For the compound shown here, CCc1nc(-c2csc(S(=O)(=O)N3CCCC(C(=O)NCc4ccc(Cl)cc4)C3)c2)no1 (stereo not given) , give the reported RP-LC retention time.
A. 1030 s

Q. For the compound shown here, O=C(NC1CC(=O)N(C2CC2)C1)C1CC=CCC1 (stereo not given) , give the reported RP-LC retention time.
A. 591 s

Q. For the compound shown here, `CN(C)c1cccc(-c2nn3c(-c4ccc5ccccc5n4)nnc3s2)c1` , give the reported RP-LC retention time.
A. 1070 s
